B1: MGC27345 (parent)
chain: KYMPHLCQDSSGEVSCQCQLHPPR

Variants of: B1
experiment_notes: protein stability index of a GFP-peptide fusion (GPS, HEK-293T) (PSI 1-6); higher = more stable;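 note: lentivirally expressed fusions sorted by FACS into six bins by GFP to DsRed ratio, PSI derived from sequencing read proportions per bin multiplied by bin number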
test_conditions: c terminus: a fixed tail appended
recorded_metric: protein stability index
Just the number, please, no unit after it.

{"mutant_designation": "C7Q", "protein stability index": 2.1}

// switching to the query variant
Looking up `K1N` , I found its protein stability index recorded as 1.73

Just for reference, the supplement of paper PMC10567573 is where these values come from.
